meta.source: ChEMBL document CHEMBL1201862

Tested on: OVCAR-8
Experiment: NCI tumour cell line growth inhibition, 48 h
Active and inactive are the calls of the source. No stated cut-off is given here; in the data, active = GI50 up to about 1.1 µM and inactive = higher.
Recorded GI50 for the following molecules

Ask: Query (molecule): "COc1ccc(/N=[N+](\[O-])c2ccc(OC)cc2)cc1" ; field requested: GI50
Reply: > 100 µM (inactive)

Ask: Which GI50 reading was recorded for the molecule CCOC(=O)C1(C/C=C/CBr)Cc2ccccc2C1=O (stereo unspecified) ?
Reply: 2.39 µM (inactive)

Ask: For CCCCCCCCCCCCCCCCOCC(O)CO (stereo unspecified) , what is its reported GI50?
Reply: 17.9 µM (inactive)

Ask: Look up GI50: Cc1ccc(S(=O)(=O)N2CCC3(C(/C=C/c4ccccc4)=Nc4ccccc43)C2c2ccccc2)cc1 (stereo unspecified)
Reply: > 100 µM (inactive)

Ask: Return reported GI50; argument: "Brc1ccc2c(c1)-c1nc3c(cc1CC2)CCc1ccc(Br)cc1-3"
Reply: > 100 µM (inactive)

Ask: GET /values?readout=GI50&item= "CC(=O)c1cc(I)c(O)c2ncccc12"
Reply: 2.92 µM (inactive)

###

System: SR
Test: NCI tumour cell line growth inhibition, 48 h
Activity calls are given as the source filed them. No stated cut-off is given here; in the data, active = GI50 up to about 1.1 µM and inactive = higher.
reported property: GI50

COC(=O)C(C(=O)C(=O)Nc1ccc([N+](=O)[O-])cc1)c1nc2ccc([N+](=O)[O-])cc2nc1O (stereo not drawn) ... > 100 µM (inactive)

Ask: For the compound "CCN(CC)CCCOc1cc2c(cc1OC)C(=O)N1CCC[C@H]1C=N2" , what GI50 is on record?
Reply: 29.2 µM (inactive)

Ask: Name the recorded GI50 for "Nc1nc(=S)[nH]c2nc3c(c(-c4ccccc4)c12)CCCC3" .
Reply: > 100 µM (inactive)

###

System: MDA-N
Assay: NCI tumour cell line growth inhibition, 48 h
Activity calls are given as the source filed them. No stated cut-off is given here; in the data, active = GI50 up to about 1.1 µM and inactive = higher.
Please answer using one outcome listed in y = active, n = inactive

Below, 8 compounds whose answers are already recorded.
CC(=O)c1cc(I)c(O)c2ncccc12 ... n
CCOC(=O)c1c(O)cn2c1[nH]c1cccc3cccc2c31 ... n
O=C(Nc1ccc(Cl)c(C(F)(F)F)c1)C(=O)c1c(O)c2ccccc2oc1=O ... n
CN(C)C(=S)SCc1ccccc1 ... n
COC(=O)CNC(=O)C(Cc1ccccc1)NC(=O)c1ccc(-c2ccc(Cl)cc2Cl)o1 (stereo not given) ... n
CCN(CC)C(=S)N/N=C(\C)c1cccc(C)n1 ... y
COC(=O)/C1=C/c2c([nH]c3ccccc23)/C(C(=O)OC)=C\c2c1[nH]c1ccccc21 ... n
CC1C2CC(CC2N)C1(C)C (stereo not given) ... n

Ask: Status in this test for "O=C(Cc1csc2[n+]1C(=O)/C(=C/c1ccc(Cl)cc1)S2)Nc1ccccc1" ?
Reply: n

Ask: Per the assay record, what outcome was assigned to "CC(=O)O[C@H]1C[C@H](O[C@H]2[C@@H](O)C[C@H](O[C@H]3[C@@H](O)C[C@H](O[C@H]4CC[C@@]5(C)[C@H](CC[C@@H]6[C@@H]5CC[C@]5(C)[C@@H](C7=CC(=O)OC7)CC[C@]65O)C4)O[C@@H]3C)O[C@@H]2C)O[C@H](C)[C@H]1O[C@@H]1O[C@H](CO)[C@@H](O)[C@H](O)[C@H]1O" ?
Reply: y
